Reference source: patent US20210040155A1

Tested System: melanocortin-5 receptor (human, UniProt P33032 1-325)
Sequence (P33032 whole entry): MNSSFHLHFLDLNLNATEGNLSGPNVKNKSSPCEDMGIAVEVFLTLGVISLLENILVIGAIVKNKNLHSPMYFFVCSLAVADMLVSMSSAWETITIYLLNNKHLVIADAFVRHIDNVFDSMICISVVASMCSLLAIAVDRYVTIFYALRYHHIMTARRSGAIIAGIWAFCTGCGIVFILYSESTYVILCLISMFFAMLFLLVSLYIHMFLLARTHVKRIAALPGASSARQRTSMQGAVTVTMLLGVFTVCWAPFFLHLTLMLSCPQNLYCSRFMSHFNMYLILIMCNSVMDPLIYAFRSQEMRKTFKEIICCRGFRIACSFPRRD
Assay: cell-based or functional assay
Bridge positions count the residues as written; N and C are the ends. Square brackets hold non-standard residues; d marks the D form.
Endpoint Label: Ratios of EC50 values MC 5/4 (MC5R against MC4R) (ratio)

Binder: Ac-RC[dA]N[dF]RWC-NH2 (disulfide 2-8; SMILES CC(=O)N[C@@H](CCCNC(=N)N)C(=O)N[C@H]1CSSC[C@@H](C(N)=O)NC(=O)[C@H](Cc2c[nH]c3ccccc23)NC(=O)[C@H](CCCNC(=N)N)NC(=O)[C@@H](Cc2ccccc2)NC(=O)[C@H](CC(N)=O)NC(=O)[C@@H](C)NC1=O) [Ac-Arg-cyclo[Cys-D-Ala-Asn-D-Phe-Arg-Trp-Cys]-NH2]
Readout Number: 530

(A) Ac-RC[dV]H[dF]RWC-NH2 (disulfide 2-8) [Ac-Arg-cyclo[Cys-D-Val-His-D-Phe-Arg-Trp-Cys]-NH2]
(B) Ac-RC[dL]H[dF]RWC-NH2 (disulfide 2-8) [Ac-Arg-cyclo[Cys-D-Leu-His-D-Phe-Arg-Trp-Cys]-NH2]
QUERY: Hi team, can someone confirm which has the larger Ratios of EC50 values MC 5/4 (MC5R against MC4R): A or B ? Thanks. Let me know the label of the one you choose.
RESULT: A
(A: 584 ratio, B: 130 ratio)
